All values here come from patent US20260132197A1.

- Test System: T1, wild type human CD47 (Acro Biosystems, cat. no. CD7-H5227) (human, UniProt Q08722 19-139)
- T1 construct: Bought protein used as SPR analyte; also called Human CD47 wt; wild-type CD47
- T1 sequence (Q08722 19-139 limits assumed): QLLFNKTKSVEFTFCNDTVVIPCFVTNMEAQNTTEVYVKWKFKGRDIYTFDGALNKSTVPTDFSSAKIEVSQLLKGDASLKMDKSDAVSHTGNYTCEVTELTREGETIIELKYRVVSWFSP
- Assay Remarks: SPR, IgG captured, CD47 in flow; exp 2;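 note: rates derived from association and dissociation curves, KD estimated from them, C33G mutein used to avoid CD47 IgV homodimers for true monovalent affinity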
Documented kon across a set of binders
Endpoint: kon (M⁻¹ s⁻¹)

INSERT INTO results (binder, unit_text, number) VALUES
  ('108VH10.Ma / 108VL10.M1 (antibody, V domains shown, 4D5-framework series; constant regions not restated for this series; also called VH10.Ma VL10.M1) VH: EVQLVESGGGLVQPGGSLRLSCAASGFTFSHHWIHWVRQAPGKGLEWVAMIDPSDSETRLSQKFKDRFTISADTSKNTAYLQMNSLRAEDTAVYYCSRLGRYYFDYWGQGTLVTVSS VL: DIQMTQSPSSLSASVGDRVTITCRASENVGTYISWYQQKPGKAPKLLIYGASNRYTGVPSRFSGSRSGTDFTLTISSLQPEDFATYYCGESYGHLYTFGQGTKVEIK', 'M⁻¹ s⁻¹', 230000),
  ('108VH10 / 108VL10.Mb (antibody, V domains shown, 4D5-framework series; constant regions not restated for this series; also called VH10 VL10.Mb) VH: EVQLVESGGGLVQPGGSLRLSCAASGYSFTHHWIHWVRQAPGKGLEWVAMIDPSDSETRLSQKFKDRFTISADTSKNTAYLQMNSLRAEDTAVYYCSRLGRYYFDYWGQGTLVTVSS VL: DIQMTQSPSSLSASVGDRVTITCRASENVGTYISWYQQKPGKAPKLLIYAASNRYTGVPSRFSGSRSGTDFTLTISSLQPEDFATYYCGESYGHLYTFGQGTKVEIK', 'M⁻¹ s⁻¹', 290000),
  ('108VH10 / 108VL10.Mc (antibody, V domains shown, 4D5-framework series; constant regions not restated for this series; also called VH10 VL10.Mc) VH: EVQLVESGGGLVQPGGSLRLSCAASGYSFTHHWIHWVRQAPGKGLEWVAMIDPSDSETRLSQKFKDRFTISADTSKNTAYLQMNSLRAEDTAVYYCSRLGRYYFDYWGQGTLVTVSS VL: DIQMTQSPSSLSASVGDRVTITCRASENVGTYISWYQQKPGKAPKLLIYGASSRYTGVPSRFSGSRSGTDFTLTISSLQPEDFATYYCGESYGHLYTFGQGTKVEIK', 'M⁻¹ s⁻¹', 190000),
  ('chimeric antibody 108C10A6 (antibody, V domains shown, Chimeric antibody with mouse variable domains; captured through human Fc; also called VH / VL) VH: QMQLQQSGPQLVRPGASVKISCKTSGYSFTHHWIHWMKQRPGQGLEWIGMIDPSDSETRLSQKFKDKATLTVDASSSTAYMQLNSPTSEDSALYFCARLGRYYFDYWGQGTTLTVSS VL: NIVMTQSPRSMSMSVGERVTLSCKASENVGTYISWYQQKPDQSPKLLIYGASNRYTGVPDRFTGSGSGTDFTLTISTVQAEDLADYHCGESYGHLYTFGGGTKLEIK', 'M⁻¹ s⁻¹', '1.6e+06'),
  ('108VH10.Mc / 108VL10.M1 (antibody, V domains shown, 4D5-framework series; constant regions not restated for this series; also called VH10.Mc VL10.M1) VH: EVQLVESGGGLVQPGGSLRLSCAASGYSFTHHWISWVRQAPGKGLEWVAMIDPSDSETRLSQKFKDRFTISADTSKNTAYLQMNSLRAEDTAVYYCSRLGRYYFDYWGQGTLVTVSS VL: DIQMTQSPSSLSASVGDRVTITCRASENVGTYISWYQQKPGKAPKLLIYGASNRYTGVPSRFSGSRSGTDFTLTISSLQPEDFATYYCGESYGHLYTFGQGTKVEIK', 'M⁻¹ s⁻¹', 250000);
